# target: 4-1BB (TNFRSF9) extracellular domain (Homo sapiens) (UniProt Q07011)
# assay remarks: competition
# condition notes: all dT replaced by TrpdU (5-(N-tryptaminocarboxyamide)-2'-deoxyuridine); all C 5-methyl-dC; inhibition of 4-1BB ligand capture by receptor on Protein A beads (co-IP); PBS/0.02% Tween-20, 37 C
measured metric: IC50 (nM)
# number only, unit nM dropped from output

Task item: Please indicate IC50 recorded for CCTGCACCCAGTGTCCCNGANGGGGNNNNNNAGNNGNANNNNGNAANGGNGGANGNNGANGGAGAGGAGGANGG [1684-40]
Reply: 0.81
